test: folding stability dG unfold from chymotrypsin proteolysis; higher = more stable
# folding stability dG unfold listing for each entry below
Number plus unit, in that order.

# count of solved cases: 3
| PRIMARY SEQUENCE | folding stability dG unfold |
| --- | --- |
| SAGGSAGGSAGGGSSGVSYGSVPIVIRDPSGNVVSTLTLRVYPDGTVVLEFPDGSLLLLSAGGSAGGSAGGS [r10_972_JUSTAS] | 17.2 kJ/mol |
| SAGGSAGGGAVVLEEAFDPVRPERLVLVEVVNEKGEPFRFPVPLEDLEAVFEKLPPGFPVLVLPSAGGSAGG [r6_111_TrMRF] | 0.566 kJ/mol |
| SKKKKIKKITLTFTTSDGSTITIEIDADQTVTITLPDGSTITITFDKDTGILTITVTNKDGSKQEFKIELSA [r9_99_TrROS_Hall] | 12.9 kJ/mol |

Next sequence, please.
Record summary for SAGGSAGGSAMYKVTIEIPETGKIYTFTHPGTAEEALAAALPEIGVSKEKIKKITVTPTEESAGGSAGGSAG [r3_79_JUSTAS] : reported folding stability dG unfold = 5.68 kJ/mol

----------
assay: folding stability dG unfold from trypsin proteolysis; higher = more stable
// folding stability dG unfold lookup, one value per entry
The answer should read as a number with its unit following.

# annotated cases, reported folding stability dG unfold shown
| PRIMARY SEQUENCE | folding stability dG unfold |
| --- | --- |
| SFRIEPDPDGTVTVRIPKDFPNKPAEEIADYIQKAFGPGMKIDKDIKIEPDPENGWVEITVKVKLPPGAKSA [r9_1011_TrROS] | 0.913 kcal/mol |
| SAGGLEEIAEKIAEELKKKGYKAEIKEVVKPPTNEVVIKYTVTYKDKNEIIEEEEKEITFKLPPGLESAGGS [r8_102_JUSTAS] | -0.556 kcal/mol |
| SAGGSKKKIYKIKIKIEVINEETGEKKTVEIEIEAESLEEALAAIAKALLPEGQTVKIVDIEIEEVSAGGSA [r2_320_TrROS_Hall] | 3.42 kcal/mol |

# evaluate next
Measured folding stability dG unfold of SAGGSAGGSAGVKSVGPIIYPNGEVFGDVKAEEETLPNGKKKLKIYATFSDGSKYEFTLDSAGGSAGGSAGG [r11_810_TrMRF] : -0.261 kcal/mol

----------
assay: folding stability dG unfold from chymotrypsin proteolysis; higher = more stable
folding stability dG unfold by entry:
Use kcal/mol as the unit, but write only the number.

Note to self: folding stability dG unfold recorded for SAGGSAGGSAMIVKEFVTYDPSTGTRTRTTVTLELYDSPEGGAVVVLEEEVDPVGPLPPLESAGGSAGGSAG [r3_397_JUSTAS] was 0.000665

Lab note: SMVIPSSLGFEPALERVRALLPPERRYVVTELDPATGETTTATYDPATGTVTTTATPSAAGPPYVVVEVVSA [r9_1059_JUSTAS] gave folding stability dG unfold of 0.345

Lab note: SAGGSAGGSAGGPDDWVEVYFIMVSIKPKEVKPDPNGGAEYEFEIKISIFPFWIPPDDISAGGSAGGSAGGS [r10_524_TrROS] gave folding stability dG unfold of 4.15

Lookup result for MNIPLKEILDKAKAEGKPVVFPDGTKTLSFEPGGKATIEKPVEVPGKPGVPLETKTYTIDINEDGSVTVNDS [r1_284_JUSTAS] ; measured folding stability dG unfold: -0.279

----------
experiment: folding stability dG unfold from trypsin proteolysis; higher = more stable
REPORTED METRIC: folding stability dG unfold (kcal/mol)
Value expressed in kcal/mol; do not type the unit.

Recorded folding stability dG unfold (sequence SAGGMTVERVPGSGVYTLTFPDGSTETLEIPPEENAVVYAKEGAGTVTVKLAPPDDPEALAAAAALSSAGGS [r16_623_JUSTAS] ): -0.344

----------
assay: folding stability dG unfold (combined trypsin and chymotrypsin); higher = more stable
Kind request: treat 3 kcal/mol as inclusive, so folding stability dG unfold at 3 kcal/mol or higher is Y, anything lower is N.

Past entries and their recorded results:
| PRIMARY SEQUENCE | LABEL |
| --- | --- |
| SAGGMTILFEADSLEEARQAVEDLLRDLGIPAIAERITVEERTFRLPAGPGTRRFVLVTIDLRLEPPSAGGS [r16_587_TrMRF] | N |
| SGEIIGEQTFPVEDGGKVPVKIYKNPGNLYAEVFNDDDKPIQEQEIPPDDDLEDIENIKLPPGAWVRIYWSA [r9_215_TrROS] | N |
| SAGGSAGGSAGGPMPVSVSPIGTKVEKTEEPLVVETTTTLSDAEGPPVTTTTTTVTPPSTSAGGSAGGSAGG [r11_129_JUSTAS] | N |

Determine whether this sequence has folding stability dG unfold no lower than 3 kcal/mol: SAMVVIPFPKDTPPEVALEAVRKAVREAAENGIVPEKIVVVAHPDLVFLVDSLVEAGIPLENVEFVPSESAG [r14_589_TrMRF]
N

Answer whether folding stability dG unfold of SAGGKPGKWRKVEIWLPPDMPDIIEEIAKNWPNVNVDTERHPENGWYPVTGYFPDPNGKPVAKIHIWSAGGS [r8_267_TrROS] is greater than or equal to 3 kcal/mol.
N

// inclusive: folding stability dG unfold at least 3 kcal/mol? input: SAGGSAGGSAGMEVIINDPEKAKNIPVNSKVKLPNGKEYKVKKVEYNPEIGYVKFIVSPESAGGSAGGSAGG [r11_316_TrMRF]
N

Test whether the sequence SAGGSAGGSAGAWTDPDGNPYEVKEATVASLGPENPIVLVRFSENGELRLVPLEQALADLSAGGSAGGSAGG [r17_517_TrMRF] records folding stability dG unfold of 3 kcal/mol or higher.
N

Is the recorded value of folding stability dG unfold equal to or greater than 3 kcal/mol for this sequence? SAMKYLVEVTADLGGPSVRYELDAESIEEAIEKVKEKLKPLFPDAPLKNITLTFHDPSSDETTTVNIVESAG [r14_54_JUSTAS]
Y

Record SAGGMMKLNPKTLETKTTTVPLPDGSTVTLTTKLVELKFPNGEVELVTLTVETFPSEPTLTVLEEKPLSAGG [r19_158_JUSTAS] ; criterion: folding stability dG unfold no lower than 3 kcal/mol. Met?
N

API: above_or_equal(metric=folding stability dG unfold, cutoff=3 kcal/mol) for item SAGGSAGGFFHIEIEWRPVKLEDLPEEDAANGKELKPGDEIWVIVKIEIYPMPPPKFDKDGELNSAGGSAGG [r6_547_TrROS]
N

Does SAMPIQIMVERDPDDGYIKVTIMFRSDSPEEAYELIETLFENLGVEVNIERYPEEGYFMIEVEIRLPPGSAG [r14_424_TrROS] have a reported folding stability dG unfold of at least 3 kcal/mol?
Y

For this sequence, is measured folding stability dG unfold 3 kcal/mol or higher? SAGGSAMYTVTLTLPPSLAIPPDSTITVTFPDGSTETYSVDSGPVTITLTAPADGSTSVGVSLSVPSAGGSA [r15_992_JUSTAS]
Y

Hi team, for SAGGSAGGSAVPPDRPFTLPVLTLVRDPETGELYLARAEVTFLAPDPVITAARLEVFPPDADFSAGGSAGGS [r12_868_TrMRF] , is the recorded folding stability dG unfold at or above 3 kcal/mol?
N

Does folding stability dG unfold meet or surpass 3 kcal/mol for SAGGSAGGSMKLEVEAELEVPLPNGKPKRFKVKFRVEPGESGVKVEVLEVDDPLVVEAIKKLFSAGGSAGGS [r12_743_TrMRF] ?
N

----------
Measured folding stability dG unfold, listed per entry.
assay: folding stability dG unfold (combined trypsin and chymotrypsin); higher = more stable

Please review the following examples before continuing.
| PRIMARY SEQUENCE | folding stability dG unfold |
| --- | --- |
| SAGGSAGGSAGTIRIKMKDGKPMEFPLKGLPKEDLDDPEFLDWIKDWARDSGMKIDDIEISAGGSAGGSAGG [r11_467_TrROS] | 0.608 kcal/mol |
| SAGGSMKIKVEYEELPNGKMVIRIDIPPEENNMTPEQVETIAKEIAEEFPNVKVETTPGSIWIRVPSAGGSA [r2_256_TrROS] | 1.24 kcal/mol |
| SAGGSAGGSMYRVRIKVRNRETGEWLEIELEVPEGVTEEELKAALRELFPDAEIVDIEIEKLPSAGGSAGGS [r12_738_TrROS_Hall] | 4.12 kcal/mol |

Shifting focus to the sequence that follows.
folding stability dG unfold reported for this sequence SAGGSAGGSAMVVEVPVEFPDDVKVYSVEEDPELGVLLVKVKFPDREVLAVIPGDKLFIADASAGGSAGGSA [r18_212_TrMRF] : 0.422 kcal/mol

----------
assay: folding stability dG unfold (combined trypsin and chymotrypsin); higher = more stable
REPORTED METRIC: folding stability dG unfold (kcal/mol)
A number alone suffices; assume kcal/mol.

The measured folding stability dG unfold associated with SAGGSAGGSAGREEVEEAIRAGETVTLEEKSPEGVIPVITVRAEFPDPDKVLVETEVKPLSAGGSAGGSAGG [r11_710_JUSTAS] reads -0.646

Record SAGGSAEEELLKAIKEALEKAKEGETVELEITLEDGSTLRITFDAENGKITVTLPNGEKLELTIEPSAGGSA [r15_977_TrROS_Hall] , field folding stability dG unfold: 4.23

# folding stability dG unfold (sequence: SAGGSSSVTEISISRSRQRPDASGRWVTEPVLPPGVYAPTTVVHENGVLTFNTVYDGKPVTETIPLSSAGGS [r16_500_JUSTAS] ) is -0.0547
